# ASSAY TEXT: Determination of the hydrolysis rate of monomers in alkaline environment (pH 12)
# Format: physicochemical
# CONDITION DETAILS: monomer in aqueous solution, starting pH 12, 25 °C, 24 h
Listed here are compounds together with their documented Hydrolysis Rate after 24 h.
READOUT TYPE: Hydrolysis Rate after 24 h

compound="C=C(C)C(=O)Oc1ccc(OC)cc1 [4-Methoxyphenylmethacrylate]" readout_type="Hydrolysis Rate after 24 h" value_measured=43.2%
compound=C=C(C)C(=O)OCC(=O)O readout_type="Hydrolysis Rate after 24 h" value_measured=70.1%
compound=C=C(C)C(=O)Sc1nc(-c2ccccc2)ns1 readout_type="Hydrolysis Rate after 24 h" value_measured=12.6%
compound="C=C(C)C(=O)OCC(=O)OC(C)(C)C [t-Butoxycarbonylmethylmethacrylate]" readout_type="Hydrolysis Rate after 24 h" value_measured=77.6%
compound="C=C(C)C(=O)Oc1ccc(NC(C)=O)cc1 [4-Methacryloyloxy acetanilide]" readout_type="Hydrolysis Rate after 24 h" value_measured=32.9%
compound="C=C(C)C(=O)Oc1c(Br)cc(Br)cc1Br [2,4,6-Tribromophenylmethacrylate]" readout_type="Hydrolysis Rate after 24 h" value_measured=13.3%
compound=C=C(C)C(=O)Oc1ccc(Br)cc1C=O readout_type="Hydrolysis Rate after 24 h" value_measured=35.6%
compound="C=C(C)C(=O)Sc1ccc(Cl)cc1 [4-Chlorothlophenylmethacrylate]" readout_type="Hydrolysis Rate after 24 h" value_measured=78.0%
